# Test system: EKVX NSCLC
# TEST METHOD NOTES: NCI tumour cell line growth inhibition, 48 h; in the data active = GI50 below about 0.43 µM; inactive = the rest
API: response.call in active, inactive

Problem: Assay outcome for `CCC[CH2][Sn-]([CH2]CCC)([CH2]CCC)[O]C(=O)C(C)C` : what was it?
Solution: active

Problem: And the next one, `COc1ccc(-n2c(=S)sc3c(Cl)nc(C)nc32)c(OC)c1` ?
Solution: inactive

Problem: And the next one, `COc1ccc(-c2ccc(OC)c(OC)c2OC)cc1` ?
Solution: inactive

Problem: Repeat for the following compound: `COc1ccc2[nH]c(C(=O)N3CCN(C(=O)OCc4ccc5c(Cl)cc(Cl)c(O)c5n4)CC3)cc2c1`
Solution: inactive

* * *

# Tested on: IGROV1 ovarian
# TEST METHOD NOTES: NCI tumour cell line growth inhibition, 48 h
I'd be grateful if you could share measured TGI for these entries.
Numbers only, in µM.

{"columns": ["MOLECULE", "UNIT INFO", "TGI"],
 "data": [
  ["COC1(CC[C@@H](C)COC2OC(CO)C(O)C(O)C2O)OC2C[C@H]3[C@@H]4CC[C@H]5C[C@@H](OC6OC(CO)C(OC7OC(CO)C(O)C(O)C7O)C(O)C6OC6OC(C)C(O)C(O)C6O)[C@H](O)C[C@]5(C)[C@H]4CC[C@]3(C)C2[C@@H]1C (stereo partly drawn)", "µM", 3.19]
]}

Now examine the next entry.
Problem: Which TGI is reported with IGROV1 ovarian for this entry: `Cc1ccc(/C(=N/Nc2ccc([N+](=O)[O-])cc2)Sc2cc(Cl)c(C)cc2S(N)(=O)=O)cc1` ?
Solution: 14.6

* * *

I'd be grateful if you could share measured TGI for these entries.
# Test system: RPMI-8226 leukemia
# TEST METHOD NOTES: NCI tumour cell line growth inhibition, 48 h

# example entries with known answers
{"columns": ["COMPOUND", "RESULT"],
 "data": [
  ["O=C1Nc2ccccc2/C1=C\\c1c(Cl)n(-c2ccccc2)c2ccccc12", "> 100 µM"],
  ["O=c1c(-c2ccc3c(c2)OCO3)coc2c3c(ccc12)OCO3", "> 100 µM"],
  ["C[C@H]1S[C@@H](c2ccc(Cl)cc2Cl)N(NC(=O)c2ccncc2)C1=O", "> 100 µM"],
  ["CCN(CC)C(=S)SC(C(=O)Nc1nnc(-c2ccc(Cl)cc2)o1)c1ccccc1 (stereo unspecified)", "22 µM"],
  ["COc1cc2c(cc1OC)C(=O)N(c1ccc(OCCN3CCCC3)cc1)C2", "> 100 µM"]
]}

# evaluate next
Problem: Which TGI value belongs to `Clc1ccccc1C(Nc1cnccn1)Nc1cnccn1` ?
Solution: > 100 µM

* * *

# Tested on: UACC-257 melanoma
# TEST METHOD NOTES: NCI tumour cell line growth inhibition, 48 h
ENDPOINT: TGI

{"columns": ["COMPOUND", "ENDPOINT", "RESULT"],
 "data": [
  ["O=C(O)CSC(CC(=O)c1ccc(Cl)cc1)c1ccc(Cl)cc1 (stereo not given)", "TGI", "53.3 µM"],
  ["NC(=O)[C@H](Cc1ccc(O)cc1)Nc1c(O)c2c(c(O)c1Cl)C(=O)C=CC2=O", "TGI", "> 10 µM"],
  ["N#C/C(=C\\c1ccc2[nH]ccc2c1)C(=O)NCCCCNC(=O)/C(C#N)=C/c1ccc2[nH]ccc2c1", "TGI", "> 31.6 µM"],
  ["C=C(C)C1CC(=O)C(C)=C(O)C1 (stereo not given)", "TGI", "> 100 µM"],
  ["COc1ccc2[nH]c(C(=O)N3CCN(C(=O)OCc4ccc5c(Cl)cc(Cl)c(O)c5n4)CC3)cc2c1", "TGI", "2.8 µM"]
]}

For each of the compounds below, note its TGI.
1. Nc1cc2c3c(cccc3c1)C(=O)N(CCN1CCCC1)C2=O
2. CC(C)Cc1cnc(CC(C)C)c(=O)[nH]1
3. COc1cc2c(cc1OC)C(=O)N(c1ccc(OCCN3CCCC3)cc1)C2
4. Cc1cn(CCCCCCOC(=O)NC(CCCNC(N)=O)C(=O)O)c(=O)[nH]c1=O (stereo not given)
5. O=C1c2ccccc2-c2nc3ccncc3n21
6. CCCCCCCC(=O)OCC/C=C/C1OC1C1OC(=O)/C=C\C=C\C(=O)N(C(C)=O)C(=O)/C=C(/C)CCC2OC2C1OC(=O)NC(C)=O (stereo not given)
7. N#Cc1ccccc1NC(=O)C(=O)C(C(=O)c1ccccc1F)C1OC(=O)c2ccccc21 (stereo not given)
8. CCOC(=O)c1cc(-c2ccc(OC)cc2)c([N+](=O)[O-])[nH]1

Solution:
1. 24.5 µM
2. > 100 µM
3. > 100 µM
4. > 100 µM
5. > 100 µM
6. > 25 µM
7. > 100 µM
8. > 10 µM

For every item in the list below, what is its measured TGI?
1. Cn1c(COC(=O)NCCc2ccccn2)nc2c(N3CCOCC3)nc(Cl)nc21
2. O=C1NC(O)n2c(=O)[nH]c(=O)n21 (stereo not given)
3. CCOC(=O)Nc1ccc2nc(-c3cscn3)[nH]c2c1

Solution:
3.28 µM
> 100 µM
> 100 µM

Look up TGI for the entries below, preserving their order.
1. CN(CCCCCl)P(=O)(OCc1ccc([N+](=O)[O-])o1)OCC1OC(n2ccc(N)nc2=O)C(O)C1O (stereo not given)
2. Oc1ccc(C(O)C2CCCCN2)cc1O (stereo not given)
3. Cn1/c(=N\N=C2\C=C3CCCCC3(C)CC2)sc2ccccc21 (stereo not given)
4. C=C(NC(=O)C(=C)NC(=O)c1ccc2c(n1)-c1coc(n1)C(=C)NC(=O)C(=C)NC(=O)c1nc(oc1C)C(=C)NC(=O)C(C(C)(C)O)NC(=O)C(=C)NC(=O)c1coc(n1)/C(=C/C)NC(=O)[C@H]([C@@H](C)O)NC(=O)c1csc-2n1)C(N)=O (stereo not given in full)

Solution:
1: 30.2 µM; 2: > 100 µM; 3: > 100 µM; 4: > 87.5 µM
